Ref: paper PMC9482650

# Test System: DLG1_2, Q12959
# Sequence (Q12959 314-412): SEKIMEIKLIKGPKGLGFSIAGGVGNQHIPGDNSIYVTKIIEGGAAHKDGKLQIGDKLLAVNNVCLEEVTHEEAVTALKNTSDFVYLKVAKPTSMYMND
# Experimental Details: holdup assay
# Parameters: key: below the threshold = too weak to quantify, mostly under pKd 3.1 to 4
# Details: plain residues with an end cap or a label only (N-terminal biotin on a linker: ado-ado)
Result Type: pKd

TSQESEDTYL [TBC1D10A, Q9BXI6] :: below the threshold
QSPANIYYKV [EFNB1, P52799] :: below the threshold
YNNCLEILRV [DCAF7, P61962] :: below the threshold
